# Tested on: Beta-2 Adrenergic Receptor-Nluc (B2AR-Nluc) fusion protein
# Protocol: Cell permeability, B2AR-Nluc in HEK293 or HeLa cells -/+ digitonin
# Assay type: cell-based
Value type: Cell permeability

[[record]]
compound = "CCN(C(=O)Cn1c(C(=O)N[C@H]2CC[C@H](C(=O)N3CCC(C(=O)O)CC3)CC2)cc2sccc21)c1cccc(C)c1 [JRW-0187]"
result_value = "cell-impermeable"

[[record]]
compound = "CCN(C(=O)Cn1c(C(=O)N[C@H]2CC[C@H](C(=O)NCCCCCC(=O)O)CC2)cc2sccc21)c1cccc(C)c1 [JRW-0147]"
result_value = "cell-impermeable"

[[record]]
compound = "CCN(C(=O)Cn1c(C(=O)N[C@H]2CC[C@H](C(=O)NCCCC(=O)O)CC2)cc2sccc21)c1cccc(C)c1 [JRW-0051]"
result_value = "cell-impermeable"

[[record]]
compound = "CCN(C(=O)Cn1c(C(=O)N[C@H]2CC[C@H](C(=O)OC)CC2)cc2sccc21)c1cccc(C)c1 [JRW-0013]"
result_value = "cell-permeable"


Query: Name the recorded Cell permeability of the item CCCCCCNC(=O)[C@H]1CC[C@H](NC(=O)c2cc3sccc3n2CC(=O)N(CC)c2cccc(C)c2)CC1 [JRW-0138] in your answer.
Response: cell-permeable

====

# System: Nluc-HALOTAG labeled with NANOBRET 618 ligand
# Protocol: Inhibition of extracellular BRET
# Format: cell-based
# Experimental parameters: HEK293 Nluc-HDAC6; 10 ng/mL extracellular Nluc-HALOTAG/NANOBRET 618; 2 hrs
Value type: BRET ratio 610/450 nm across compound dose-response curve (FIGS. 12B-12E)

[[record]]
compound = "CCN(C(=O)Cn1c(C(=O)N[C@H]2CC[C@H](C(=O)N3CCC(C(=O)O)CC3)CC2)cc2sccc21)c1cccc(C)c1 [JRW-0187]"
assay_system = "Nluc-HALOTAG labeled with NANOBRET 618 ligand"
result_value = "BRET ratio decreased"

[[record]]
compound = "CCN(C(=O)Cn1c(C(=O)N[C@H]2CC[C@H](C(=O)NCCCC(=O)O)CC2)cc2sccc21)c1cccc(C)c1 [JRW-0051]"
assay_system = "Nluc-HALOTAG labeled with NANOBRET 618 ligand"
result_value = "BRET ratio decreased"

[[record]]
compound = "CCN(C(=O)Cn1c(C(=O)N[C@H]2CC[C@H](C(=O)NCCCCCC(=O)O)CC2)cc2sccc21)c1cccc(C)c1 [JRW-0147]"
assay_system = "Nluc-HALOTAG labeled with NANOBRET 618 ligand"
result_value = "BRET ratio decreased"


====

# Assay system: NANOLUC® enzyme (Oplophorus gracilirostris, UniProt Q9GV45, A31E/A60N/A81I/F95D/I117V/K70R/L54V/L99Q/M102K/N193R/P142E/Q151K/Q38R/Q45L/V71I/Y165I)
# Sequence (Q9GV45 28-196 with tags or gaps with the stated changes limits assumed): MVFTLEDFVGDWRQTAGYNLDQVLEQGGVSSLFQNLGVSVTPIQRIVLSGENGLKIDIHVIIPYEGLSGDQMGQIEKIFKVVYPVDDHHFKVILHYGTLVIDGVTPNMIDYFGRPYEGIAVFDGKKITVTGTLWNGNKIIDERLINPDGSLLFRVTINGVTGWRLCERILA
# Protocol: Inhibitor IC50 determination (NANOLUC enzyme, furimazine)
# Format: biochemical
# Experimental parameters: IC50 (uM), 0.4 ng/ml NANOLUC enzyme, final furimazine 10 uM (at Km)
Counter-ions that a name gives are not always drawn.
Reported log10(IC50) is given for each of the following compounds.
A difference of one corresponds to tenfold IC50; all values are log10 with IC50 in µM.

[[record]]
compound = "CCN(C(=O)Cn1c(C(=O)N[C@H]2CC[C@H](C(=O)OC)CC2)cc2sccc21)c1cccc(C(N)=O)c1"
result_value = -0.70

[[record]]
compound = "CCN(C(=O)Cn1c(C(=O)N[C@H]2CC[C@H](C(=O)OC)CC2)cc2ccc(OC)cc21)c1cccc(C)c1"
result_value = 0.48

[[record]]
compound = "COCCOCCN(C(=O)Cn1c(C(=O)N[C@H]2CC[C@H](C(=O)OC)CC2)cc2sccc21)c1cccc(C)c1"
result_value = 0.48


Query: Name the recorded log10(IC50) of the item CCOC(=O)Cc1ccc(NC(=O)c2cc3sccc3n2CC(=O)N(CC)c2cccc(C)c2)cc1 in your answer.
Response: 0.63

Query: Name the recorded log10(IC50) of the item CCN(C(=O)Cn1c(C(=O)N[C@H]2CC[C@H](C(=O)NCCCCCC(=O)O)CC2)cc2sccc21)c1cccc(C)c1 in your answer.
Response: -1.03

Query: Name the recorded log10(IC50) of the item CCN(C(=O)Cn1c(C(=O)N[C@H]2CC[C@H](C(=O)NCCCCCCO)CC2)cc2sccc21)c1cccc(C)c1 in your answer.
Response: -1.46

Query: Name the recorded log10(IC50) of the item CCN(C(=O)Cn1c(C(=O)N[C@H]2CC[C@H](C(=O)OC)CC2)cc2sccc21)c1ccccc1 in your answer.
Response: -0.96

Query: Name the recorded log10(IC50) of the item CCCCCCN(C(=O)Cn1c(C(=O)NC2CCCCC2)cc2sccc21)c1cccc(C)c1 in your answer.
Response: 0.72

Query: Name the recorded log10(IC50) of the item CCCCCCN(C(=O)Cn1c(C(=O)N[C@H]2CC[C@H](C(=O)OC)CC2)cc2sccc21)c1cccc(C)c1 in your answer.
Response: 0.40

Query: Name the recorded log10(IC50) of the item CCN(C(=O)Cn1c(C(=O)N[C@H]2CC[C@H](C(=O)NCCCCCCN)CC2)cc2sccc21)c1cccc(C)c1 [JRW-0241, hydrochloride] in your answer.
Response: -1.20

Query: Name the recorded log10(IC50) of the item CCN(C(=O)Cn1c(C(=O)N[C@H]2CC[C@H](C(=O)NC3CCN(C(C)=O)CC3)CC2)cc2sccc21)c1cccc(C)c1 in your answer.
Response: -0.32

Query: Name the recorded log10(IC50) of the item CCN(C(=O)Cn1c(C(=O)N[C@H]2CC[C@H](C(=O)OC)CC2)cc2sccc21)c1cccc(C#N)c1 in your answer.
Response: -0.80

Query: Name the recorded log10(IC50) of the item CCN(C(=O)Cn1c(C(=O)N[C@H]2CC[C@H](C(N)=O)CC2)cc2sccc21)c1cccc(C)c1 in your answer.
Response: 0.11

Query: Name the recorded log10(IC50) of the item CCN(C(=O)Cn1c(C(=O)NC)cc2sccc21)c1cccc(C)c1 in your answer.
Response: 0.74

Query: Name the recorded log10(IC50) of the item CCN(C(=O)Cn1c(C(=O)N[C@H]2CC[C@H](C(=O)N[C@H]3CC[C@H](C(=O)OC)CC3)CC2)cc2sccc21)c1cccc(C)c1 in your answer.
Response: -0.68

Recorded values, source patent US10513694B2.
